target: FLNA (Homo sapiens); construct: rather than the full protein from a cell membrane preparation; host or cells: A7 cells (membranes); assay: Inhibition of [3H]NLX binding to membranes from FLNA-expressing A7 cells; details: [3H]NLX binding, A7 cell membranes; Example 3, six studies, two-site fit; read-out: IC50-H (high)
pIC50: −log10 of the molar value.
READOUT: pIC50

[[record]]
molecule = "O=C1CC[C@@]2(O)[C@H]3Cc4ccc(O)c5c4[C@@]2(CCN3CC2CC2)[C@H]1O5 [Naltrexone]"
readout = "pIC50"
measured_number = 11.40


###

biological target: FLNA pentapeptide of SEQ ID NO: 1 (Bn-VAKGL) (Homo sapiens); assay: FITC-NLX-based FLNA screening assay (inhibition of FITC-naloxone binding to Bn-VAKGL); settings: read-out: Percent Inhibition
READOUT: inhibition at 1 µM

[[record]]
given_smiles = "C=C1CC[C@@]2(O)[C@H]3Cc4ccc(O)c5c4[C@@]2(CCN3CC2CC2)[C@H]1O5"
result = "44.5%"

[[record]]
given_smiles = "CN1CC[C@]23CCCC[C@H]2[C@H]1Cc1ccc(O)cc13"
result = "46.8%"

[[record]]
given_smiles = "C=CCN1CC[C@]23c4c5ccc(O)c4O[C@H]2[C@@H](O)C=C[C@H]3[C@H]1C5"
result = "58.7%"

[[record]]
given_smiles = "Oc1ccc2c3c1O[C@H]1c4[nH]c5ccccc5c4C[C@@]4(O)[C@@H](C2)N(CC2CC2)CC[C@]314"
result = "41%"

[[record]]
given_smiles = "Oc1ccc2c3c1O[C@H]1[C@@H](O)CC[C@@]4(O)[C@@H](C2)N(CC2CCC2)CC[C@]314"
result = "65.4%"


###

target: FLNA pentapeptide of SEQ ID NO: 1 (Bn-VAKGL) (Homo sapiens); assay: FITC-NLX-based FLNA screening assay (inhibition of FITC-naloxone binding to Bn-VAKGL); details: read-out: Percent Inhibition
Quick reference: inhibition at 10 µM of the listed items.
READOUT: inhibition at 10 µM

[[record]]
compound = "C=C1CC[C@@]2(O)[C@H]3Cc4ccc(O)c5c4[C@@]2(CCN3CC2CC2)[C@H]1O5 [Nalmefene]"
result = "66.9%"

[[record]]
compound = "C=CCN1CC[C@]23c4c5ccc(O)c4O[C@H]2[C@@H](O)C=C[C@H]3[C@H]1C5 [Nalorphine]"
result = "60.2%"

[[record]]
compound = "Oc1ccc2c3c1O[C@H]1c4[nH]c5ccccc5c4C[C@@]4(O)[C@@H](C2)N(CC2CC2)CC[C@]314 [Naltrindole]"
result = "65%"

[[record]]
compound = "Oc1ccc2c3c1O[C@H]1[C@@H](O)CC[C@@]4(O)[C@@H](C2)N(CC2CCC2)CC[C@]314 [Nalbuphine]"
result = "76.2%"

[[record]]
compound = "CN1CC[C@]23CCCC[C@H]2[C@H]1Cc1ccc(O)cc13 [Levorphanol]"
result = "69.4%"


###

biological target: FLNA (Homo sapiens, UniProt P21333); construct: rather than the full protein from a cell membrane preparation; host or cells: A7 cells (membranes); assay: Inhibition of FITC-NLX binding to FLNA in membranes of A7 cells; conditions: FITC-NLX in place of [3H]NLX; read-out: IC50-H (high)
Sequence (P21333 whole entry): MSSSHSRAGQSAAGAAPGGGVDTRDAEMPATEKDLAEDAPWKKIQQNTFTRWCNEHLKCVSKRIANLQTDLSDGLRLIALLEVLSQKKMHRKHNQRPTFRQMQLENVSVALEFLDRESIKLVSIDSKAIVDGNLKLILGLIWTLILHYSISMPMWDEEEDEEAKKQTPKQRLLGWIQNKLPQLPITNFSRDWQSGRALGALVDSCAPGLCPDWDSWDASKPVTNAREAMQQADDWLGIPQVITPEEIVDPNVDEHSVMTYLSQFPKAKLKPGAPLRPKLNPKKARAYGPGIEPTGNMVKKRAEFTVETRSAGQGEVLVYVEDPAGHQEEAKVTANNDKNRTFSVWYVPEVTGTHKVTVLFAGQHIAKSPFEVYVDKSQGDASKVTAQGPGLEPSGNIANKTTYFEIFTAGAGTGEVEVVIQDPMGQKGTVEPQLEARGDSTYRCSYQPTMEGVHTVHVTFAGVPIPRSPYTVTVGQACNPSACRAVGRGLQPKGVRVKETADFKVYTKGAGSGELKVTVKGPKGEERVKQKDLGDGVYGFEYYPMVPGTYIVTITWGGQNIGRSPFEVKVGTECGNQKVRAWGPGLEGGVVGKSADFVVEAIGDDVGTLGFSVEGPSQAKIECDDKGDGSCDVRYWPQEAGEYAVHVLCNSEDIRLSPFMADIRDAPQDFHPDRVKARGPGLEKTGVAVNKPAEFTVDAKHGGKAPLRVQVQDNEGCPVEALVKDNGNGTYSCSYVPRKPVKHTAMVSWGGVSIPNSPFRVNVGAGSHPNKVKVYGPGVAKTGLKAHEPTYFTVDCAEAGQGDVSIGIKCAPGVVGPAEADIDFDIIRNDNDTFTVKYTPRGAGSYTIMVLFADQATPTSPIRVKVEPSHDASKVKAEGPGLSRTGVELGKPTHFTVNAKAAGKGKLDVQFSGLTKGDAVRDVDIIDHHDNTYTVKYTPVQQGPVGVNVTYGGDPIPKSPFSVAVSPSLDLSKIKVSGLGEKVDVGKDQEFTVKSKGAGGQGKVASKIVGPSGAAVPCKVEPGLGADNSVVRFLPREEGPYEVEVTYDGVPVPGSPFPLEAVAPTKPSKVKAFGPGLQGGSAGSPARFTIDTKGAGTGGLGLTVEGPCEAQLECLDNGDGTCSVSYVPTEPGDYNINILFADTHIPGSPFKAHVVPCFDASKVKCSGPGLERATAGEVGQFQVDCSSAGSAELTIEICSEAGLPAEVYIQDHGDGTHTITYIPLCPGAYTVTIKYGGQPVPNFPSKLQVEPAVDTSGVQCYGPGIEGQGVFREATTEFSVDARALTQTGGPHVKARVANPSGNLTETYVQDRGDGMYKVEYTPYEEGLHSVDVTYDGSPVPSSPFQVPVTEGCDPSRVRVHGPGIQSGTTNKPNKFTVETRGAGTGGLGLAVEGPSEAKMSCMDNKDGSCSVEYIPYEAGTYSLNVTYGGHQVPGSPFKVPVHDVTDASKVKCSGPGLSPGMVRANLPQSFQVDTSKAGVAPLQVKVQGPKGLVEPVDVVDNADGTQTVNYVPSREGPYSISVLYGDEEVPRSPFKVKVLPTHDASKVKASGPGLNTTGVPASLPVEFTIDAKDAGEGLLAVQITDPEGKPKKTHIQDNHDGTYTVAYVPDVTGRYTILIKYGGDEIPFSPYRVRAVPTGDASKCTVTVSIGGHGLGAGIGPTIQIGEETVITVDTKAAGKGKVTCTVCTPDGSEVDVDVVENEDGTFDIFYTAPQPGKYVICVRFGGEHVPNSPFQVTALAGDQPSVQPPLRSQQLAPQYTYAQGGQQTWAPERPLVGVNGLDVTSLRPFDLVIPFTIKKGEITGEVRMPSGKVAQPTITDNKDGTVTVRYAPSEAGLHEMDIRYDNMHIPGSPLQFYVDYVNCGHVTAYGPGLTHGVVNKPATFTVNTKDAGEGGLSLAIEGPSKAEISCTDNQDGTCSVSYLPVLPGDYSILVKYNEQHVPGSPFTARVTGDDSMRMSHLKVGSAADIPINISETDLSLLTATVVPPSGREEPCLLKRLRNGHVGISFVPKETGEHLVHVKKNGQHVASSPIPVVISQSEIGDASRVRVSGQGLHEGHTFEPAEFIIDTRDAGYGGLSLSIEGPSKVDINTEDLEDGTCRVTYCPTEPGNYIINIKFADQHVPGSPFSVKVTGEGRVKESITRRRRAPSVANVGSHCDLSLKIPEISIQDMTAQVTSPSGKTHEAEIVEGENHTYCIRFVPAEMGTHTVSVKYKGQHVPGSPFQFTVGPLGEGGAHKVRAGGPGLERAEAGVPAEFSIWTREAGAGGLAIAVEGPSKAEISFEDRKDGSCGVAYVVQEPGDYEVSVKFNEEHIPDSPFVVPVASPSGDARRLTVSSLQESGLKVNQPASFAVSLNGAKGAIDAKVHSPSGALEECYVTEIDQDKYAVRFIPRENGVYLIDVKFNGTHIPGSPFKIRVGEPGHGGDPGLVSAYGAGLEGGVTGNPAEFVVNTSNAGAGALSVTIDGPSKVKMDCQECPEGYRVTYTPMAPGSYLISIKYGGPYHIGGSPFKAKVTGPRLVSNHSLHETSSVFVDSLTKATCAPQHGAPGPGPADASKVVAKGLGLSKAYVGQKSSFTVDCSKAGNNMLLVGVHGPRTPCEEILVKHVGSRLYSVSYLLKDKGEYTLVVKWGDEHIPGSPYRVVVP
READOUT: IC50 (pM)

[[record]]
compound = "O=C1CC[C@@]2(O)[C@H]3Cc4ccc(O)c5c4[C@@]2(CCN3CC2CC2)[C@H]1O5 [Naltrexone]"
unit_of_measurement = "pM"
measured_number = 1.63


###

molecular target: FLNA (Homo sapiens); construct: rather than the full protein from a cell membrane preparation; host or cells: A7 cells (membranes); experiment: Inhibition of [3H]NLX binding to membranes from FLNA-expressing A7 cells; conditions: IC50-L (low), [3H]NLX binding, A7 cell membranes; Example 3, six studies, two-site fit
pIC50: −log10 of the molar value.
READOUT: pIC50

[[record]]
compound = "O=C1CC[C@@]2(O)[C@H]3Cc4ccc(O)c5c4[C@@]2(CCN3CC2CC2)[C@H]1O5 [Naltrexone]"
measured_number = 9.08


###

target: FLNA pentapeptide of SEQ ID NO: 1 (Bn-VAKGL) (Homo sapiens, UniProt P21333); test: FITC-NLX-based FLNA screening assay (inhibition of FITC-naloxone binding to Bn-VAKGL)
READOUT: binding to the FLNA pentapeptide of SEQ ID NO: 1 (in words)

[[record]]
compound = "C=CCN1CC[C@]23c4c5ccc(O)c4O[C@H]2[C@@H](O)C=C[C@H]3[C@H]1C5"
result = "bind well"

[[record]]
compound = "Oc1ccc2c3c1O[C@H]1[C@@H](O)CC[C@@]4(O)[C@@H](C2)N(CC2CCC2)CC[C@]314"
result = "bind well"

[[record]]
compound = "COc1ccc2c3c1O[C@H]1C(=O)CC[C@@]4(O)[C@@H](C2)N(C)CC[C@]314"
result = "do not bind well"

[[record]]
compound = "CN1CC[C@]23c4c5ccc(O)c4O[C@H]2[C@@H](O)C=C[C@H]3[C@H]1C5"
result = "do not bind well"

[[record]]
compound = "C=CCN1CC[C@]23c4c5ccc(O)c4O[C@H]2C(=O)CC[C@@]3(O)[C@H]1C5"
result = "bind well"

[[record]]
compound = "O=C1CC[C@@]2(O)[C@H]3Cc4ccc(O)c5c4[C@@]2(CCN3CC2CC2)[C@H]1O5 [Naltrexone]"
result = "bind well"

